# Tested on: 276233-004-R-J1-PDC complex spheroid viability;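 further: spheroids exposed to drugs for seven days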
# protocol.text: Anticancer human tumor 276233-004-R-J1-PDC patient-derived colon adenocarcinoma cell line growth inhibition [GQUAD]
# condition: curve of first compound; second compound 3.16 µM
pIC50: −log10 of the molar value.
Items are presented alongside their recorded pIC50.

Some solved cases for reference:
{"columns": ["compound", "reported.value"],
 "data": [
  ["CC(=O)O[C@H]1C(=O)[C@@]2(C)[C@H]([C@H](OC(=O)c3ccccc3)[C@]3(O)C[C@H](OC(=O)[C@H](O)[C@@H](NC(=O)c4ccccc4)c4ccccc4)C(C)=C1C3(C)C)[C@]1(OC(C)=O)CO[C@@H]1C[C@@H]2O + Cc1[nH]c2ccc(F)cc2c1-c1nc2c3cccnc3c3ncccc3c2[nH]1", "> 7.50"],
  ["CC1COCCN1c1cc(C2(O)CC3CCC(C2)O3)c2cnn(-c3ccn[nH]3)c2n1 (centres undefined) + CN(C)c1ccc(Nc2c3ccc(NC(=O)CCN4CCCC4)cc3nc3cc(NC(=O)CCN4CCCC4)ccc23)cc1", 7.04],
  ["O=C(c1cc(Cc2n[nH]c(=O)c3ccccc23)ccc1F)N1CCN(C(=O)C2CC2)CC1 + Cc1cnc(CNC(=O)c2c(=O)c3ccc(N4CCCN(C)CC4)nc3n3c2sc2ccccc23)cn1", "< 5.00"],
  ["C=CC(=O)N1CCN(c2nc(=O)n(-c3c(C)ccnc3C(C)C)c3nc(-c4c(O)cccc4F)c(F)cc23)C(C)C1 (centres undefined) + Cc1[nH]c2ccc(F)cc2c1-c1nc2c3cccnc3c3ncccc3c2[nH]1", "< 5.00"],
  ["Cn1ncnc1[C@H]1c2n[nH]c(=O)c3cc(F)cc(c23)N[C@@H]1c1ccc(F)cc1 + Cc1cnc(CNC(=O)c2c(=O)c3ccc(N4CCCN(C)CC4)nc3n3c2sc2ccccc23)cn1", "< 6.50"]
]}

Continue with the next compound.
Fill in reported pIC50 for this entry: COc1ncnc(C2CC2)c1-c1ncc2cnn(Cc3ccc(-c4nc(C(F)(F)F)cn4C(C)C)cc3)c2n1 + Cc1[nH]c2ccc(F)cc2c1-c1nc2c3cccnc3c3ncccc3c2[nH]1 > 7.50
